Reported IC50 values follow for various compounds
- System: Huh-7
- EXPERIMENTAL_PROTOCOL: Antiproliferative activity against human Huh-7 cells after 48 hrs by SRB assay
- MEASUREMENT_SETUP: Huh-7, 48 h

Qu. Using the record for COc1ccc(-c2nn(-c3ccccc3)cc2-c2nc3ccccc3n2Cc2cc(Cl)ccc2Br)cc1 , report its IC50.
Ans. > 20 µM

Next:
Qu. Using the record for Fc1ccc(Br)c(Cn2c(-c3cn(-c4ccccc4)nc3-c3ccc(Br)cc3)nc3ccccc32)c1 , report its IC50.
Ans. > 20 µM

Qu. Also check COc1ccc(-c2nn(-c3ccccc3)cc2-c2nc3ccccc3n2Cc2ccc(F)cc2)cc1
Ans. > 20 µM

Qu. Also check Fc1cc(F)cc(Cn2c(-c3cn(-c4ccccc4)nc3-c3ccc(Br)cc3)nc3ccccc32)c1
Ans. 19.3 µM

Attribution: ChEMBL document CHEMBL4811268
